Origin of values: BindingDB's records for doi:10.1007/s10822-022-00478-x

# assay target: UniProt Q9Y233
Catalogue of IC50 readings, one per entry.
Write down the numeric answer in nM and omit the unit.

// solved cases for IC50 follow
CC(C)c1cc(NC(=O)c2c(C(=O)N3CCC3)cnn2C)n(C2CCCC2)n1 [Roche-Dataset for PDE10A, Compound 1042] = 854
O=C(NCC1CCC1)c1nc(C2CC2)cnc1Nc1cncnc1 [Roche-Dataset for PDE10A, Compound 1038] = 1590
CCn1nc(C)cc1C(=O)Nc1cc2nc(-c3ccccc3)[nH]c2cc1C(=O)NCCOC [Roche-Dataset for PDE10A, Compound 256] = 14
Cn1ncc(C(=O)N2CCOCC2)c1C(=O)Nc1ccc2nc(N3CCCC3)nn2c1 [Roche-Dataset for PDE10A, Compound 415] = 2.45
CN(C)C(=O)c1cnn(C)c1C(=O)Nc1ccn2cc(-c3cccc(Br)c3)nc2n1 [Roche-Dataset for PDE10A, Compound 319] = 40
Cn1ncc(C(=O)N2CCC2)c1C(=O)Nc1ccn2nc(-c3ccccc3OCCF)nc2c1 [Roche-Dataset for PDE10A, Compound 14] = 0.35

Read the next record carefully.
Prompt: Quick check: IC50 on UniProt Q9Y233, item COc1ccc(-c2nc3cc(NC(=O)c4c(C(=O)N5CCC5)cnn4C)ccn3n2)cc1 [Roche-Dataset for PDE10A, Compound 820] ?
Completion: 7.9
